Hi there, I'd appreciate the recorded Trep Concentration (μM) 15 min for every entry that follows.
# Assay Name: Stability in cryopreserved hepatocytes, human
Give bare numbers, in µM.

[
  {
    "Compound": "CCCCCC(CCC1C(O)CC2Cc3c(cccc3OCC(=O)O)CC21)OC(=O)NC (centres unmarked)",
    "Observed Measurement": 0
  },
  {
    "Compound": "CCCCCC(CCC1C(O)CC2Cc3c(cccc3OCC(=O)O)CC21)OC(=O)CCN (centres unmarked)",
    "Observed Measurement": 0.0481
  },
  {
    "Compound": "CCCCCC(CCC1C(O)CC2Cc3c(cccc3OCC(=O)O)CC21)OCCC (centres unmarked)",
    "Observed Measurement": 0.00507
  },
  {
    "Compound": "CCCCCC(CCC1C(O)CC2Cc3c(cccc3OCC(=O)O)CC21)OC(=O)N1CCC(O)CC1 (centres unmarked)",
    "Observed Measurement": 0
  }
]

Prompt: For the compound CCCCCC(CCC1C(O)CC2Cc3c(cccc3OCC(=O)O)CC21)OP(=O)(O)O (centres unmarked) , give its reported Trep Concentration (μM) 15 min.
Completion: 0.223

---

Task for the reader: assign each of the following compounds its reported Trep Concentration (μM) 60 min.
# Assay Name: Stability in cryopreserved hepatocytes, rat
Answers are plain numbers, in µM.

[
  {
    "Compound": "CCCCCC(CCC1C(O)CC2Cc3c(cccc3OCC(=O)O)CC21)OC(=O)c1ccc(C(F)(F)F)cc1 (stereo not shown)",
    "Observed Measurement": 0.227
  }
]

Your task in this section: give Trep Concentration (μM) 60 min for each listed record.
1. CCCCCC(CCC1C(O)CC2Cc3c(cccc3OCC(=O)O)CC21)OC(=O)COc1ccc(OC(F)(F)F)cc1 (stereo not shown)
2. CCCCCC(CCC1C(O)CC2Cc3c(cccc3OCC(=O)O)CC21)OCCN1CCOCC1 (stereo not shown)
3. CCCCCC(CCC1C(O)CC2Cc3c(cccc3OCC(=O)O)CC21)OC(=O)C1CCCN1 (stereo not shown)

Completion:
[0.234, 0.00352, 0.505]

---

# Assay Name: Stability in liver microsomes, human
# Settings: human
# Description: Mixed-gender human liver microsomes, male Sprague-Dawley rat liver microsomes, and male Beagle dog liver microsomes were purchased from XenoTech. The reaction mixture, minus NADPH, was prepared as described below. […] Aliquots of the supernatant were removed, diluted 1:1 into distilled water containing internal standard, and analyzed by LC-MS/MS against calibration standards prepared in a matched matrix. All samples were analyzed for the dosed prodrugs as well as the drug, treprostinil. […]
Hi, to clarify the labels: TRUE covers AUC from 20 µmol·min/L upward, FALSE covers anything below 20 µmol·min/L.

Some solved cases for reference:
[
  {
    "Compound": "CCCCCC(CCC1C(O)CC2Cc3c(cccc3OCC(=O)O)CC21)OC(=O)C1CCCN1 (centres unmarked) [XXXVI]",
    "Assigned Class": "TRUE"
  },
  {
    "Compound": "CCCCCC(CCC1C(O)CC2Cc3c(cccc3OCC(=O)O)CC21)OC(C)=O (centres unmarked) [XLIII]",
    "Assigned Class": "TRUE"
  }
]

Prompt: Entry CCCCCC(CCC1C(O)CC2Cc3c(cccc3OCC(=O)O)CC21)OC(=O)C(C)N (centres unmarked) [XXXI] : is its AUC no less than 20 µmol·min/L?
Completion: FALSE

Prompt: Answer whether AUC of CCCCCC(CCC1C(O)CC2Cc3c(cccc3OCC(=O)O)CC21)OCC(=O)O (centres unmarked) [LVII] is greater than or equal to 20 µmol·min/L.
Completion: FALSE

Prompt: Check this compound for AUC at or above 20 µmol·min/L: CCCCCC(O)CCC1C(OC)CC2Cc3c(cccc3OCC(=O)O)CC21 (centres unmarked) [LIII]
Completion: FALSE

Source of measurements: patent US12491170B2
